TEST_TARGET: human ACC1 (acetyl-coenzyme A carboxylase alpha transcript variant 1) (Homo sapiens, UniProt Q13085)
Construct: FLAG (C); made in house; host or cells: baculovirus-infected insect cells (Hi5)
ASSAY_PROCEDURE: Human ACC1 enzyme assay, Assay B1 (ADP-Glo)
Assay type: biochemical
MEASUREMENT_CONTEXT: Assay B1; read-out: ACC 1 (=B1) IC50
What IC50 was measured for each of the following?
Quick note: unit goes after the number.

Query: Would you mind telling me what IC50 value was observed for Cc1ccc(-c2ccc(Cl)cc2)cc1C1=C(O)C2(CCCCCC2)CC1=O [6-7] ?
Response: 1030 nM

Query: Would you mind telling me what IC50 value was observed for Cc1ccc(-c2ccc(Cl)cc2)c(C)c1C1=C(O)C2(CCC3(CC2)OCC(C)O3)NC1=O (centres unmarked) [1-62] ?
Response: 385 nM

Query: Would you mind telling me what IC50 value was observed for Cc1ccc(-c2ccc(Cl)cc2)cc1C1=C(O)[C@]2(CC[C@](O)(C(F)(F)F)CC2)NC1=O [1-122] ?
Response: 124 nM

Query: Would you mind telling me what IC50 value was observed for CCOCCO[C@@H]1CC[C@@]2(C1)NC(=O)C(c1cc(-c3ccc(Cl)cc3)ccc1C)=C2O (relative stereo) [1-50] ?
Response: 11800 nM

Query: Would you mind telling me what IC50 value was observed for Cc1ccc(-c2ccc(Cl)cc2)cc1-c1c(O)c2ccccc2[nH]c1=O [9-5] ?
Response: 661 nM

---

What pIC50 was measured for each of the following?
TEST_TARGET: UniProtKB O00763
ASSAY_PROCEDURE: Human ACC2 enzyme assay, Assay B2 (ADP-Glo)
pIC50: −log10 of the molar value.

Query: Would you mind telling me what pIC50 value was observed for Cc1ccc(-c2ccc(Cl)cc2)cc1C1=C(O)[C@@]2(CC[C@H](OCC(C)C)C2)NC1=O (relative stereo) ?
Response: < 4.70

Query: Would you mind telling me what pIC50 value was observed for Cc1ccc(-c2ccc(Cl)cc2)c(C)c1C1=C(O)C2(CCOCC2)NC1=O ?
Response: < 4.70

Query: Would you mind telling me what pIC50 value was observed for CO[C@H]1CC[C@]2(CC1)NC(=O)C(c1cc(-c3ccc(F)c(Cl)c3)ccc1C)=C2O ?
Response: < 4.70

---

TEST_TARGET: human ACC2 (acetyl-coenzyme A carboxylase 2) (Homo sapiens)
Sequence (O00763 27-2458 limits assumed): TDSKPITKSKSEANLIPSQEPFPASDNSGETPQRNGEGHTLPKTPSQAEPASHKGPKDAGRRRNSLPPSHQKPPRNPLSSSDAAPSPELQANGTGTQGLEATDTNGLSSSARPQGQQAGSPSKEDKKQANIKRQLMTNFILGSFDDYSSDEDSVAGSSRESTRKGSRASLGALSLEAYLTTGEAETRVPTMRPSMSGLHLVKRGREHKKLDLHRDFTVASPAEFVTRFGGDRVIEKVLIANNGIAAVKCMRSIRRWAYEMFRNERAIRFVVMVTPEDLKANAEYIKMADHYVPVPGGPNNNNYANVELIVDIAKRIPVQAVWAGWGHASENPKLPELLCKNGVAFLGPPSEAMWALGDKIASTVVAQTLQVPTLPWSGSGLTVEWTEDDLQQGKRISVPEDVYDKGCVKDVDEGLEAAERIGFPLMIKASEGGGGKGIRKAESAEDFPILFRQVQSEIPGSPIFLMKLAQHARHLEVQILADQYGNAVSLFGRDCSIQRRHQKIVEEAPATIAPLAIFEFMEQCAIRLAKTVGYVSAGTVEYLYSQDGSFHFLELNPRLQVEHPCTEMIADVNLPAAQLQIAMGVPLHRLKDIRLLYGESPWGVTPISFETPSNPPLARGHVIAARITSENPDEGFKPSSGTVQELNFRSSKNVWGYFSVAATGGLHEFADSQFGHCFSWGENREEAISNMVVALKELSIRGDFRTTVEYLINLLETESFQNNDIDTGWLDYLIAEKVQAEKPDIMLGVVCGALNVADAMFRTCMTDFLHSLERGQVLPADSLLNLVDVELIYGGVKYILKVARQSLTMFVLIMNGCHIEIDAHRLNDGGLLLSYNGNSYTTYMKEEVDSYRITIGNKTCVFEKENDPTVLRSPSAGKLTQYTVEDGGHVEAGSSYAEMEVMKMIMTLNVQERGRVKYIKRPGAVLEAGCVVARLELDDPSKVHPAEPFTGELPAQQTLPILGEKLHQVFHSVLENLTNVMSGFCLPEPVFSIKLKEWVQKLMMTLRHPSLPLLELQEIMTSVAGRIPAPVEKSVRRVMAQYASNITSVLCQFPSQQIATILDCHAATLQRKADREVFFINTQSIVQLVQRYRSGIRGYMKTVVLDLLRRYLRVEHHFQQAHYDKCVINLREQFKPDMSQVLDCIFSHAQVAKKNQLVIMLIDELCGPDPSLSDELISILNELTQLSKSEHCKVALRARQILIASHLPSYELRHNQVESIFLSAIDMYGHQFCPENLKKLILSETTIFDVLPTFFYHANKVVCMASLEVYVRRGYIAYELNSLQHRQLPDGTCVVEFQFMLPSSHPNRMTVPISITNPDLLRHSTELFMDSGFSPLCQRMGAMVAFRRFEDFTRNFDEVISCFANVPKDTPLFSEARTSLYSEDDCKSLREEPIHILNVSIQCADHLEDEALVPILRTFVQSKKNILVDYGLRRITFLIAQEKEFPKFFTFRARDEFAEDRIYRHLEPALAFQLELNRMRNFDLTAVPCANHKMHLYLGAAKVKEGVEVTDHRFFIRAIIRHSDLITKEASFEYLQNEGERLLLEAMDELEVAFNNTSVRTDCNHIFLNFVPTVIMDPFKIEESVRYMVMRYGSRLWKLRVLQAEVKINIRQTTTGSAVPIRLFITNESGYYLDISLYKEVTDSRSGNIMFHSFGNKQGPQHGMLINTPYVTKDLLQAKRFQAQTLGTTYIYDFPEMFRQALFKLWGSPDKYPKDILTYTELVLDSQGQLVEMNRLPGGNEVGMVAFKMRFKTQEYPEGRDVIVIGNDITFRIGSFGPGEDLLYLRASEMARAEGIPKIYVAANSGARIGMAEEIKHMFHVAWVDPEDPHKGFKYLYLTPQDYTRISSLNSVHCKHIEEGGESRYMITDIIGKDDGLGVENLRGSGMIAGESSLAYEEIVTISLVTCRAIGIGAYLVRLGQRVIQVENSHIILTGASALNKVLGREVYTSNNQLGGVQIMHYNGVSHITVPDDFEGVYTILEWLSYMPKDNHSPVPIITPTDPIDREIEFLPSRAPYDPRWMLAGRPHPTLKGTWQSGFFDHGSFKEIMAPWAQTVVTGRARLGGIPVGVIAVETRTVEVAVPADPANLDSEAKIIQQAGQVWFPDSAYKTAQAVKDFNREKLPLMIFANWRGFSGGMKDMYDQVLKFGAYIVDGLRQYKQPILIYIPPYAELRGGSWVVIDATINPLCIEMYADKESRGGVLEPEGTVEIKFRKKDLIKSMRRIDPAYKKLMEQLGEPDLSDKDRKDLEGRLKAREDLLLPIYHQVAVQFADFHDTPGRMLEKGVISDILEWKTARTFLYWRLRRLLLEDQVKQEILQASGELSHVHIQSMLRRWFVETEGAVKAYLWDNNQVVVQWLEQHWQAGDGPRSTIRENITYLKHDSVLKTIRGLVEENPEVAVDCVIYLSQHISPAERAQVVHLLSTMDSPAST
ASSAY_PROCEDURE: Human ACC2 enzyme assay, Assay B2 (ADP-Glo);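 also: human ACC2 activity read as ADP product, detected by luciferase glow luminescence after residual ATP removal, enzyme near 2 ng/µl in linear range, detection steps at 22 °C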
pIC50: −log10 of the molar value.
METRIC: pIC50

Query: Would you mind telling me what pIC50 value was observed for COCCO[C@@H]1CCC[C@]2(C1)NC(=O)C(c1cc(-c3ccc(Cl)cc3)ccc1Cl)=C2O (relative stereo) [1-74] ?
Response: < 4.70

Query: Would you mind telling me what pIC50 value was observed for Cc1cc(C)c(-c2ccc(Cl)cc2)cc1C1=C(O)C(C)(C)CCC1=O [7-4] ?
Response: < 4.70

Query: Would you mind telling me what pIC50 value was observed for Cc1ccc(-c2ccc(F)c(F)c2)cc1C1=C(O)[C@]2(CC[C@](O)(C(F)(F)F)CC2)NC1=O [1-124] ?
Response: < 4.70

---

TEST_TARGET: recombinant human ACC1 (Homo sapiens)
ASSAY_PROCEDURE: Human ACC1 enzyme assay, Assay A1 (HTRF ADP immunoassay);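 also: ADP generated by the enzyme quantified via competitive time-resolved FRET, read as europium cryptate to d2 energy transfer after 1 h at 22 °C with labelled ADP tracer and anti-ADP antibody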
What pIC50 was measured for each of the following?
Conceptually, pIC50 converts a concentration in mol/L into minus its log10.

Query: Would you mind telling me what pIC50 value was observed for Cc1ccc(-c2ccc(Cl)c(F)c2)cc1C1=C(O)[C@]2(CC[C@H](C(F)(F)F)CC2)NC1=O [1-90] ?
Response: 6.84

Query: Would you mind telling me what pIC50 value was observed for COC[C@H]1CC[C@]2(CC1)NC(=O)C(c1cc(-c3ccc(Cl)cc3)ccc1C)=C2O [1-116] ?
Response: 6.63

Query: Would you mind telling me what pIC50 value was observed for Cc1ccc(-c2ccc(Cl)c(F)c2)c(C)c1C1=C(O)[C@]2(CC[C@](O)(C(F)(F)F)CC2)NC1=O [1-126] ?
Response: 6.52

Query: Would you mind telling me what pIC50 value was observed for Cc1ccc(-c2ccc(F)c(F)c2)cc1C1=C(O)[C@]2(CC[C@](O)(C(F)(F)F)CC2)NC1=O [1-124] ?
Response: 6.34

Query: Would you mind telling me what pIC50 value was observed for CO[C@H]1CC[C@]2(CC1)NC(=O)C(c1cc(-c3ccc(Cl)cc3)c(Cl)cc1C)=C2O [1-109] ?
Response: 6.10

Query: Would you mind telling me what pIC50 value was observed for Cc1ccc(-c2ccc(Cl)c(F)c2)cc1C1=C(O)[C@]2(CC[C@](O)(C(F)(F)C(F)(F)F)CC2)NC1=O [1-130] ?
Response: 6.88

Query: Would you mind telling me what pIC50 value was observed for Cc1ccc(-c2ccc(F)c(F)c2)cc1C1=C(O)[C@]2(CC[C@H](C)CC2)NC1=O [1-145] ?
Response: 6.71

Query: Would you mind telling me what pIC50 value was observed for CC1(C)CCC2(CC1)NC(=O)C(c1cc(-c3ccc(Cl)cc3)ccc1Cl)=C2O [1-138] ?
Response: 6.58

Query: Would you mind telling me what pIC50 value was observed for CO[C@H]1CC[C@]2(CC1)NC(=O)C(c1cc(-c3ccc(Cl)cc3Cl)ccc1C)=C2O [1-143] ?
Response: 6.55

Query: Would you mind telling me what pIC50 value was observed for O=C1N[C@]2(CCC[C@H](C(F)(F)F)C2)C(O)=C1c1cc(-c2ccc(Cl)cc2)ccc1Cl [1-137] ?
Response: 6.51

Query: Would you mind telling me what pIC50 value was observed for CO[C@H]1CC[C@]2(CC1)NC(=O)C(c1cc(-c3ccc(F)c(F)c3)ccc1Cl)=C2O [1-104] ?
Response: 6.48

Query: Would you mind telling me what pIC50 value was observed for CO[C@H]1CC[C@]2(CC1)NC(=O)C(c1cc(-c3ccc(Cl)cc3F)ccc1C)=C2O [1-142] ?
Response: 6.47

Query: Would you mind telling me what pIC50 value was observed for CO[C@H]1CC[C@]2(CC1)NC(=O)C(c1cc(-c3ccc(Cl)cc3)c(F)cc1C)=C2O [1-135] ?
Response: 6.66

Query: Would you mind telling me what pIC50 value was observed for CO[C@H]1CC[C@]2(CC1)NC(=O)C(c1c(C)ccc(-c3ccc(Cl)cc3)c1C)=C2O [1-121] ?
Response: 6.40

Query: Would you mind telling me what pIC50 value was observed for Cc1ccc(-c2ccc(F)c(F)c2)cc1C1=C(O)[C@]2(CC[C@@H](C(F)(F)F)CC2)NC1=O [1-129] ?
Response: 6.46

Query: Would you mind telling me what pIC50 value was observed for Cc1c(F)cc(-c2ccc(Cl)cc2)cc1C1=C(O)[C@]2(CC[C@H](C(F)(F)F)CC2)NC1=O [1-91] ?
Response: 6.52

Query: Would you mind telling me what pIC50 value was observed for Cc1cc(F)c(-c2ccc(Cl)c(F)c2)cc1C1=C(O)C2(CCC(C(F)(F)F)CC2)NC1=O (mixture of isomers) [1-94] ?
Response: 7.14

Query: Would you mind telling me what pIC50 value was observed for Cc1ccc(-c2ccc(Cl)cc2)cc1C1=C(O)[C@]2(CC[C@H](CO)CC2)NC1=O [1-117] ?
Response: 6.63

Query: Would you mind telling me what pIC50 value was observed for Cc1cc(F)c(-c2ccc(Cl)cc2)cc1C1=C(O)[C@]2(CC[C@](O)(C(F)(F)C(F)(F)F)CC2)NC1=O [1-131] ?
Response: 6.58

Query: Would you mind telling me what pIC50 value was observed for CCc1cc(C)cc(Br)c1C1=C(O)C2(CCCCC2)NC1=O [V-4, reference compound] ?
Response: 5.27

Query: Would you mind telling me what pIC50 value was observed for Cc1ccc(-c2ccc(Cl)cc2)c(C)c1C1=C(O)[C@]2(CC[C@H](C(F)(F)F)CC2)NC1=O [1-95] ?
Response: 6.42

Query: Would you mind telling me what pIC50 value was observed for COC[C@H]1CC[C@]2(CC1)NC(=O)C(c1cc(-c3ccc(F)c(F)c3)ccc1C)=C2O [1-112] ?
Response: 6.78

Query: Would you mind telling me what pIC50 value was observed for CO[C@H]1CC[C@]2(CC1)NC(=O)C(c1cc(-c3ccc(Cl)cc3)c(C)cc1C)=C2O [1-132] ?
Response: 5.77

Query: Would you mind telling me what pIC50 value was observed for CO[C@H]1CC[C@]2(CC1)NC(=O)C(c1cc(-c3ccc(F)c(F)c3)ccc1C)=C2O [1-136] ?
Response: 6.62

Query: Would you mind telling me what pIC50 value was observed for CCCOC1CCC2(CC1)OC(=O)C(c1cc(-c3ccc(Cl)cc3)c(C)cc1C)=C2O (stereo not shown) [2-47] ?
Response: 6.23

Query: Would you mind telling me what pIC50 value was observed for Cc1c(F)cc(-c2ccc(Cl)c(F)c2)cc1C1=C(O)[C@]2(CC[C@H](C(F)(F)F)CC2)NC1=O [1-102] ?
Response: 6.67

Query: Would you mind telling me what pIC50 value was observed for CO[C@H]1CC[C@]2(CC1)NC(=O)C(c1cc(-c3ccc(Cl)cc3)cc(F)c1C)=C2O [1-106] ?
Response: 6.36

Query: Would you mind telling me what pIC50 value was observed for COCC[C@H]1CC[C@]2(CC1)NC(=O)C(c1cc(-c3ccc(Cl)c(F)c3)ccc1C)=C2O [1-114] ?
Response: 6.63

Query: Would you mind telling me what pIC50 value was observed for Cc1ccc(-c2ccc(Cl)cc2)cc1C1=C(O)[C@]2(CC[C@](O)(C(F)(F)F)CC2)NC1=O [1-122] ?
Response: 7.01

Query: Would you mind telling me what pIC50 value was observed for O=C1N[C@]2(CC[C@@H](C(F)(F)F)CC2)C(O)=C1c1cc(-c2ccc(Cl)c(F)c2)ccc1Cl [1-92] ?
Response: 6.65

Query: Would you mind telling me what pIC50 value was observed for CO[C@H]1CC[C@]2(CC1)NC(=O)C(c1cc(-c3ccc(Cl)c(F)c3)c(Cl)cc1C)=C2O [1-108] ?
Response: 6.34

Just for reference, patent US20130040935A1 is where these values come from.
